System: NCI-H1651 (Lung Adenocarcinoma);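 note: after 72 h of two-drug dosing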
Assay: Bliss excess, mean over the matrix (fraction); higher = more synergy
This section presents molecules with their documented Bliss excess values.
Readout Label: Bliss excess

[[record]]
molecule = "C=CCn1c(=O)c2cnc(Nc3ccc(N4CCN(C)CC4)cc3)nc2n1-c1cccc(C(C)(C)O)n1 [AZD1775] + O=C(c1cc(Cc2n[nH]c(=O)c3ccccc23)ccc1F)N1CCN(C(=O)C2CC2)CC1 [Olaparib] (first compound max 1 µM, partner max 10 µM)"
readout_label = "Bliss excess"
recorded_value = -0.0869

[[record]]
molecule = "Cn1cnc2c(F)c(Nc3ccc(Br)cc3Cl)c(C(=O)NOCCO)cc21 [Selumetinib] + C=CCn1c(=O)c2cnc(Nc3ccc(N4CCN(C)CC4)cc3)nc2n1-c1cccc(C(C)(C)O)n1 [AZD1775] (first compound max 10 µM, partner max 1 µM)"
readout_label = "Bliss excess"
recorded_value = -0.0692

[[record]]
molecule = "O=C(c1cc(Cc2n[nH]c(=O)c3ccccc23)ccc1F)N1CCN(C(=O)C2CC2)CC1 [Olaparib] + CN(CC[C@H](CSC1=CC=CC=C1)NC2=C(C=C(C=C2)S(=O)(=O)NC(=O)C3=CC=C(C=C3)N4CCC(CC4)[C@H](C5=CC=CC=C5C6=CC=C(C=C6)Cl)O)S(=O)(=O)C(F)(F)F)CCO [AZD4320] (first compound max 10 µM, 7x7, partner max 1 µM)"
readout_label = "Bliss excess"
recorded_value = 0.0253

[[record]]
molecule = "C[C@@H](Nc1cc(F)cc(F)c1)c1cc(C(=O)N(C)C)cc2c(=O)cc(N3CCOCC3)oc12 [AZD8186] + C1CN(CCC1(C(=O)N[C@@H](CCO)C2=CC=C(C=C2)Cl)N)C3=NC=NC4=C3C=CN4 [AZD5363] (first compound max 10 µM, 7x7, partner max 10 µM)"
readout_label = "Bliss excess"
recorded_value = -0.0302

[[record]]
molecule = "CN(CCO)CC[C@H](CSc1ccccc1)Nc1ccc(S(=O)(=O)NC(=O)c2ccc(N3CCC([C@@H](O)c4ccccc4-c4ccc(Cl)cc4)CC3)cc2)cc1S(=O)(=O)C(F)(F)F [AZD4320] + Cn1cnc2c(F)c(Nc3ccc(Br)cc3Cl)c(C(=O)NOCCO)cc21 [Selumetinib] (first compound max 1 µM, 7x7, partner max 3 µM)"
readout_label = "Bliss excess"
recorded_value = 0.0238

[[record]]
molecule = "CS(=O)(=O)CCNCc1ccc(-c2ccc3ncnc(Nc4ccc(OCc5cccc(F)c5)c(Cl)c4)c3c2)o1 [Lapatinib] + Cn1cnc2c(F)c(Nc3ccc(Br)cc3Cl)c(C(=O)NOCCO)cc21 [Selumetinib] (first compound max 10 µM, 7x7, partner max 10 µM)"
readout_label = "Bliss excess"
recorded_value = -0.0355

[[record]]
molecule = "CC1(C)CCC(CN2CCN(c3ccc(C(=O)NS(=O)(=O)c4ccc(NCC5CCOCC5)c([N+](=O)[O-])c4)c(Oc4cnc5[nH]ccc5c4)c3)CC2)=C(c2ccc(Cl)cc2)C1 [Venetoclax] + Cc1cc2ncnn2cc1Nc1ncc2c(n1)n(C1CCOCC1)c(=O)n2C [AZD7648] (first compound max 1 µM, 7x7, partner max 10 µM)"
readout_label = "Bliss excess"
recorded_value = -0.0342

[[record]]
molecule = "Cc1cc2ncnn2cc1Nc1ncc2c(n1)n(C1CCOCC1)c(=O)n2C [AZD7648] + CCN(CCO)CCCOc1ccc2c(Nc3cc(CC(=O)Nc4cccc(F)c4)[nH]n3)ncnc2c1 [AZD2811] (first compound max 10 µM, 7x7, partner max 1 µM)"
readout_label = "Bliss excess"
recorded_value = 0.0404

